The values you see were collected from ChEMBL document CHEMBL3414472.

experiment: Plasma concentration in C57BL/6 mouse at 3 mg/kg, po after 2 hrs; type: ADME, organism-based; design: dose 3 mg/kg, route oral
Measurement kind: concentration at 2 h (µM)
Use µM as the unit, but write only the number.

Req: # lookup: concentration at 2 h of CN(C)C(=O)Cn1cc(-c2nc([C@@](C)(c3ccc(-c4cnc(N)nc4)cc3)C3CC3)no2)cn1
Resp: 3.7

* * *

The compounds below have reported pIC50 for UniProt:P11712.
Sequence (P11712 whole entry): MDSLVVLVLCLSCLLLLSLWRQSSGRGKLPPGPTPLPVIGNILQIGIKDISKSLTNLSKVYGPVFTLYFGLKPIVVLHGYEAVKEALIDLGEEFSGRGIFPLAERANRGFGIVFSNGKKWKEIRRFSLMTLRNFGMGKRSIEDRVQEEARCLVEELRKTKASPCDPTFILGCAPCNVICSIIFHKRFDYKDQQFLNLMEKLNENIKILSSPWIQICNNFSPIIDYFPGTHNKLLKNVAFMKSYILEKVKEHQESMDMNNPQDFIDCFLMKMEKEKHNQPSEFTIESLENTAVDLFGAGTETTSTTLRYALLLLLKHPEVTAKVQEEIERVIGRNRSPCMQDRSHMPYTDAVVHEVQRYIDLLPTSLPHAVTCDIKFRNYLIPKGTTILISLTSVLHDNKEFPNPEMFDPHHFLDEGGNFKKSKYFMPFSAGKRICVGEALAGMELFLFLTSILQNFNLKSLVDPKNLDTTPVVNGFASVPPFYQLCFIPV
Note on pIC50: it is the negative log10 of concentration, concentration in mol/L.

Req: # query: pIC50 | item CN(C)CCn1cc(-c2nc(C3(c4ccc(-c5cnc(N)nc5)cc4)CCC3)no2)cn1 | system: UniProt:P11712
Resp: 5.15

Req: # returns recorded pIC50 (system: UniProt:P11712) for CC(C)(O)Cn1cc(-c2nc([C@@](C)(c3ccc(-c4cnc(N)nc4)cc3)C3CC3)no2)cn1
Resp: 5.40
